- testSystem: T1, Human TROP2 ECD (31-274 AA), biotinylated (human, UniProt P09758 31-274, biotinylated (site not stated))
- T1 construct: also called tumor-associated calcium signal transducer 2; Human TROP2-biotin
- T1 sequence: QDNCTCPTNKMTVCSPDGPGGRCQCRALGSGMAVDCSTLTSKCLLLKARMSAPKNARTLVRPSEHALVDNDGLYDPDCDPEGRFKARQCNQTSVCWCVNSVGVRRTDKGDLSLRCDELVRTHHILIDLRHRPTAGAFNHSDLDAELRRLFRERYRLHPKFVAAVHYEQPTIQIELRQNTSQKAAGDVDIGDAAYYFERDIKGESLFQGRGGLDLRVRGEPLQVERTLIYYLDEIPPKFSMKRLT
- experimentalDetails: ELISA: biotinylated TROP2 captured on neutravidin plate, Fab titrated, HRP secondary antibody

binder: TBD-12 (anti-TROP2 Fab, HC G99A) (Fab, V domains shown) VH: QVQLQQSGSELKKPGASVKVSCKASGYTFTNYGMNWVKQAPGQGLKWMGWINTYTGEPTYTDDFKGRFAFSLDTSVSTAYLQISSLKADDTAVYFCARAGFGSSYWYFDVWGQGSLVTVSS VL: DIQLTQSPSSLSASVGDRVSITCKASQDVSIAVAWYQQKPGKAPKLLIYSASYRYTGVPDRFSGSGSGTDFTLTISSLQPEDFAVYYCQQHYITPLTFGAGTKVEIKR
EC50: 0.2 nM
--
binder: TBD-7 (anti-TROP2 Fab, LC T94A) (Fab, V domains shown) VH: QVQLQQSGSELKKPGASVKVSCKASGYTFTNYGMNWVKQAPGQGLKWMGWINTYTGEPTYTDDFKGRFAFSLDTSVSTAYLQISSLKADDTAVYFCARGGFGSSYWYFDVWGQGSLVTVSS VL: DIQLTQSPSSLSASVGDRVSITCKASQDVSIAVAWYQQKPGKAPKLLIYSASYRYTGVPDRFSGSGSGTDFTLTISSLQPEDFAVYYCQQHYIAPLTFGAGTKVEIKR
EC50: 0.22 nM
--
binder: TBD-6 (anti-TROP2 Fab, LC I93A) (Fab, V domains shown, also called TBD-6 (LC I93A mutant)) VH: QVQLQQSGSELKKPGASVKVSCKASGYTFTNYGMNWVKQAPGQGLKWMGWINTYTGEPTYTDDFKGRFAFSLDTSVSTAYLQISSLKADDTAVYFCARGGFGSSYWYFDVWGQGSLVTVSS VL: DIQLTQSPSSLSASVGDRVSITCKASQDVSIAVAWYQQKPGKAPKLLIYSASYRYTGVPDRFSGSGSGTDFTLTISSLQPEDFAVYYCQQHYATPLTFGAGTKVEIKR
EC50: 0.29 nM
